protein stability index for assorted variants
B1: KLHL12 (parent)
chain: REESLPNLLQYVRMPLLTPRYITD

- Variants of: B1
- assay overview: protein stability index of a GFP-peptide fusion (GPS, HEK-293T) (PSI 1-6); higher = more stable;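 further: lentivirally expressed fusions sorted by FACS into six bins by GFP to DsRed ratio, PSI derived from sequencing read proportions per bin multiplied by bin number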
- protocol conditions: c terminus: a fixed tail appended
Simply state the number, no unit and no words.

Please review the entries below; each comes with its answer.
variant_name=L9R quantitative_result=3.14
variant_name=R13E quantitative_result=2.84
variant_name=Q10P quantitative_result=2.79

Here is another variant to look at.
input: Entry Y11M : reported protein stability index = ?
output: 2.34
